# ASSAY TARGET: TEAD1 TAZ (amino acids 13-57) (Homo sapiens)
# Sequence (P28347 167-426 limits assumed): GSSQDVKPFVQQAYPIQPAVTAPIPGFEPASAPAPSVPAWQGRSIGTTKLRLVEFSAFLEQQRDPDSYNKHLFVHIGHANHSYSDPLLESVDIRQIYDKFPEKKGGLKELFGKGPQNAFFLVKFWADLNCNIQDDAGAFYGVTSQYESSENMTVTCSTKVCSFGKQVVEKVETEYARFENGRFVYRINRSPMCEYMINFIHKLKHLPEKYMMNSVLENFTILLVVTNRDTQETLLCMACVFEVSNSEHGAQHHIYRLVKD
# ASSAY INFO: TEAD1-TAZ HTRF (TR-FRET) protein-protein interaction assay
# Type: binding
# CONDITIONS: TEAD1, TAZ peptide, HTRF
Each record's class is read off its TEAD1 TAZ HTRF combined: Max % Inhibition using these ranges: lo: < 60%; med: ≥ 60% and < 70%; hi: ≥ 70%

For orientation, consider the following solved cases.
Q) Which class does Cc1nccnc1-c1nn2c(=O)cc(-c3ccc(O[C@H](c4ccccc4)C(F)(F)F)cc3)[nH]c2c1C(=O)N1CC(CF)C1 [Compound 68] fall in?
A) med

Q) Categorize the following entry: C[C@@H]1[C@H](CF)CN1C(=O)c1c(-c2cnccn2)nn2c(=O)cc(-c3ccc(C4CCCCC4)cc3)[nH]c12 (single isomer, unassigned) [Isomer B, Example 39]
A) lo

Q) Category of Cc1nccnc1-c1nn2c(=O)cc(-c3ccc(C4CCCC4)cc3)[nH]c2c1C(=O)N1C[C@H](CF)[C@@H]1C [Compound 69] :
A) hi

Q) Band of O=C(c1c(-c2ncccn2)nn2c(=O)cc(-c3ccc(C4CCCCC4)c(F)c3)[nH]c12)N1CC(CF)C1 [Compound 22] ?
A) med

Q) Bin? [2H]C1([2H])C([2H])([2H])C([2H])([2H])C([2H])(c2ccc(-c3cc(=O)n4nc(-c5nccnc5C)c(C(=O)N5C[C@H](CF)[C@@H]5C)c4[nH]3)cc2)C([2H])([2H])C1([2H])[2H] [Compound 72]
A) hi

More entries:
Q) Categorize the following entry: CC(C)(C)c1ccc(COc2cc(=O)n3nc(-c4ncccn4)c(C(=O)N4CC(CF)C4)c3[nH]2)cc1 [Compound 54]
A) med

Q) Class (by measured TEAD1 TAZ HTRF combined: Max % Inhibition) for Cc1ccnc(-c2nn3c(=O)cc(-c4ccc(C5CCCCC5)cc4)[nH]c3c2C(=O)N2CC(CF)C2)c1 [Compound 18]
A) med

Q) Band assignment needed for O=C(c1c(-c2ncccn2)nn2c(=O)cc(-c3ccc(CC4CCCC4)cc3)[nH]c12)N1CC(CF)C1 [Compound 24] please.
A) lo

* * *

# ASSAY TARGET: TEAD3 TAZ (amino acids 13-57) (Homo sapiens)
# ASSAY INFO: TEAD3-TAZ HTRF (TR-FRET) protein-protein interaction assay
# Assay type: binding
# CONDITIONS: TEAD3-TAZ HTRF, TR-FRET 665 nm/615 nm; read-out: TEAD3 TAZ HTRF combined: EC50
READOUT NAME: pEC50
Note on units: pEC50 is unitless, being -log10 of a concentration expressed in mol/L.

Solved entries:
Q) Quick one: pEC50 for `[2H]C1([2H])C([2H])([2H])C([2H])([2H])C([2H])(c2ccc(-c3cc(=O)n4nc(-c5nccnc5C)c(C(=O)N5C[C@H](CF)[C@@H]5C)c4[nH]3)cc2)C([2H])([2H])C1([2H])[2H]` ?
A) 6.77

Q) Query: pEC50; subject: `Cc1c(-c2nn3c(=O)cc(-c4ccc(C5CCCCC5)cc4)[nH]c3c2C(=O)N2CC(CF)C2)ncn1C`
A) 7.10

Q) Query (compound): `O=C(c1c(-c2ncccn2)nn2c(=O)cc(-c3ccc(C4CCCCC4)c(F)c3)[nH]c12)N1CC(CF)C1` ; field requested: pEC50
A) 6.68

---
Q) Recorded pEC50 of `Cc1nccnc1-c1nn2c(=O)cc(-c3ccc(O[C@H](c4ccccc4)C(F)(F)F)cc3)[nH]c2c1C(=O)N1CC(CF)C1` , please.
A) 6.23

Q) Look up pEC50: O=C(c1c(C2CNCCO2)nn2c(=O)cc(-c3ccc(C4CCCCC4)cc3)[nH]c12)N1CC(CF)C1 (single isomer, unassigned) [Enantiomer A, Example 63]
A) 6.70

Q) What value of pEC50 has been recorded for this entry: `Cc1nccnc1-c1nn2c(=O)cc(-c3ccc(O[C@@H](c4ccccc4)C(F)(F)F)cc3)[nH]c2c1C(=O)N1CC(CF)C1`
A) 6.70

* * *

# ASSAY TARGET: TEAD3 TAZ (amino acids 13-57) (Homo sapiens, UniProt Q99594)
# Sequence (Q99594 173-435 limits assumed): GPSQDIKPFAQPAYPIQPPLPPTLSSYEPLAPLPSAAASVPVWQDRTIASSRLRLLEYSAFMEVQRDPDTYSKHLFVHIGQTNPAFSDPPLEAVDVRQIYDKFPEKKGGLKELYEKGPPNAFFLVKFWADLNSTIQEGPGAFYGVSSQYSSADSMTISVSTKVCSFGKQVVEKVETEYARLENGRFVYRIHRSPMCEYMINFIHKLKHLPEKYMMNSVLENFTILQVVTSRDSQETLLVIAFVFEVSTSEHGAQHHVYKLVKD
# ASSAY INFO: TEAD3-TAZ HTRF (TR-FRET) protein-protein interaction assay
# Assay type: binding
# CONDITIONS: TEAD3, TAZ peptide, HTRF
Readings of TEAD3 TAZ HTRF combined: Max % Inhibition for the listed molecules
Lab book: enter the figure in %, no units written.

Q) Would you kindly share the measured TEAD3 TAZ HTRF combined: Max % Inhibition for `Cc1nccnc1-c1nn2c(=O)cc(-c3ccc(C4CCC(F)(F)CC4)cc3)[nH]c2c1C(=O)N1CC(CF)C1` ?
A) 55.0

Q) Consider the molecule Cc1nccnc1-c1nn2c(=O)cc(-c3ccc(CC(C)(C)C)cc3)[nH]c2c1C(=O)N1C[C@H](CF)[C@@H]1C (racemic) and give its measured TEAD3 TAZ HTRF combined: Max % Inhibition.
A) 59.5

Q) Tell me the measured TEAD3 TAZ HTRF combined: Max % Inhibition of `C[C@@H]1[C@H](CF)CN1C(=O)c1c(C(=O)N(C)C)nn2c(=O)cc(-c3ccc(C4CCCCC4)cc3)[nH]c12` , please.
A) 64.5

Q) Return reported TEAD3 TAZ HTRF combined: Max % Inhibition; argument: O=C(c1c(C2CNCCO2)nn2c(=O)cc(-c3ccc(C4CCCCC4)cc3)[nH]c12)N1CC(CF)C1 (single isomer, unassigned) [Enantiomer A, Example 63]
A) 55.5

Q) Which value of TEAD3 TAZ HTRF combined: Max % Inhibition has been reported for CC1CCN1C(=O)c1nn2c(=O)cc(-c3ccc(C4CCCCC4)cc3)[nH]c2c1C(=O)N1CC(CF)C1 (single isomer, unassigned) [Enantiomer A, Example 33] in the records?
A) 58.5

Q) Recorded TEAD3 TAZ HTRF combined: Max % Inhibition for `CCN(C)C(=O)c1nn2c(=O)cc(-c3ccc(C4CCCCC4)cc3)[nH]c2c1C(=O)N1CC(CF)C1` , please?
A) 57.0

* * *

# ASSAY TARGET: TEAD4 YAP50-100 (Homo sapiens, UniProt Q15561)
# Sequence (Q15561 217-434 limits assumed): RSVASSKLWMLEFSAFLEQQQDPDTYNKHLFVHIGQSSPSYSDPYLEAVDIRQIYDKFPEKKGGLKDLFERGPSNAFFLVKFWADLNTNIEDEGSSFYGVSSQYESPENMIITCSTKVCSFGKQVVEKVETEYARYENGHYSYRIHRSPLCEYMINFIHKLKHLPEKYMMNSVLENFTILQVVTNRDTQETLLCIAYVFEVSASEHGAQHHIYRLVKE
# ASSAY INFO: TEAD4-YAP HTRF (TR-FRET) protein-protein interaction assay
# CONDITIONS: TEAD4, YAP peptide 50-100, HTRF; read-out: TEAD4 YAP50-100 HTRF combined: EC50
# Procedure: Purified His-tagged TEAD protein (YAP Binding Domain, amino acids 217-447) is pre-incubated with Europium labelled anti-His antibody tracer (Perkin Elmer Cat #AD0110). […] After 60 minutes, the plate is read on a plate reader using TR-FRET mode with wavelengths of 665 nm/615 nm. […] The potency of compounds as YAP:TEAD or TAZ:TEAD protein-protein interaction (PPi) inhibitors is determined by an IC50 or EC50 value generated using a non-linear four parameter curve fit.
pEC50: −log10 of the molar value.
Answer label 0 if pEC50 is under 7, and label 1 if it is 7 or more.

Past entries and their recorded results:
Q) Check if pEC50 >= 7 (inclusive). Item: `C[C@H]1[C@@H](CF)CN1C(=O)c1c(C(=O)N(C)C)nn2c(=O)cc(-c3ccc(C4CCCCC4)cc3)[nH]c12`
A) label 0

Q) Is the recorded value of pEC50 equal to or greater than 7 for this molecule? `Cc1nccnc1-c1nn2c(=O)cc(-c3ccc(C4CCCCC4)cc3)[nH]c2c1C(=O)N1CC(CF)C1`
A) label 1

Q) Could you tell me if the measured pEC50 of CC(CO)c1nn2c(=O)cc(-c3ccc(C4CCCCC4)cc3)[nH]c2c1C(=O)N1CC[C@@H](C#N)C1 (single isomer, unassigned) [Final product obtained using Enantiomer A from Step 4, Example 54] reaches 7 or more?
A) label 0

Q) Hello, I need to know if `CCN(C)C(=O)c1nn2c(=O)cc(-c3ccc(C4CCCCC4)cc3)[nH]c2c1C(=O)N1CC(CF)C1` has measured pEC50 not below 7. Thanks!
A) label 0

Q) Threshold query (pEC50 >= 7) on Cc1nccnc1-c1nn2c(=O)cc(-c3ccc(OC(c4ccccc4)C(F)(F)F)cc3)[nH]c2c1C(=O)N1C[C@H](CF)[C@@H]1C (single isomer, unassigned) [Final product obtained using Enantiomer A from Step 1, Example 56]
A) label 0

Q) Kindly determine if pEC50 recorded for `O=C(c1c(-c2cnccn2)nn2c(=O)cc(-c3ccc(C4CCCCC4)cc3)[nH]c12)N1CC(CF)C1` is above or exactly 7.
A) label 1

***
Q) Does Cc1nccnc1-c1nn2c(=O)cc(-c3ccc(C4CCCCC4)cc3)[nH]c2c1C(=O)N1C[C@@H](CF)[C@H]1C (single isomer, unassigned) [Isomer A, Example 41] have a reported pEC50 of at least 7?
A) label 0
